- TARGET_OR_SYSTEM: angiotensin-I-converting enzyme from rabbit lung (Oryctolagus cuniculus)
- Sequence (P12822 34-1310): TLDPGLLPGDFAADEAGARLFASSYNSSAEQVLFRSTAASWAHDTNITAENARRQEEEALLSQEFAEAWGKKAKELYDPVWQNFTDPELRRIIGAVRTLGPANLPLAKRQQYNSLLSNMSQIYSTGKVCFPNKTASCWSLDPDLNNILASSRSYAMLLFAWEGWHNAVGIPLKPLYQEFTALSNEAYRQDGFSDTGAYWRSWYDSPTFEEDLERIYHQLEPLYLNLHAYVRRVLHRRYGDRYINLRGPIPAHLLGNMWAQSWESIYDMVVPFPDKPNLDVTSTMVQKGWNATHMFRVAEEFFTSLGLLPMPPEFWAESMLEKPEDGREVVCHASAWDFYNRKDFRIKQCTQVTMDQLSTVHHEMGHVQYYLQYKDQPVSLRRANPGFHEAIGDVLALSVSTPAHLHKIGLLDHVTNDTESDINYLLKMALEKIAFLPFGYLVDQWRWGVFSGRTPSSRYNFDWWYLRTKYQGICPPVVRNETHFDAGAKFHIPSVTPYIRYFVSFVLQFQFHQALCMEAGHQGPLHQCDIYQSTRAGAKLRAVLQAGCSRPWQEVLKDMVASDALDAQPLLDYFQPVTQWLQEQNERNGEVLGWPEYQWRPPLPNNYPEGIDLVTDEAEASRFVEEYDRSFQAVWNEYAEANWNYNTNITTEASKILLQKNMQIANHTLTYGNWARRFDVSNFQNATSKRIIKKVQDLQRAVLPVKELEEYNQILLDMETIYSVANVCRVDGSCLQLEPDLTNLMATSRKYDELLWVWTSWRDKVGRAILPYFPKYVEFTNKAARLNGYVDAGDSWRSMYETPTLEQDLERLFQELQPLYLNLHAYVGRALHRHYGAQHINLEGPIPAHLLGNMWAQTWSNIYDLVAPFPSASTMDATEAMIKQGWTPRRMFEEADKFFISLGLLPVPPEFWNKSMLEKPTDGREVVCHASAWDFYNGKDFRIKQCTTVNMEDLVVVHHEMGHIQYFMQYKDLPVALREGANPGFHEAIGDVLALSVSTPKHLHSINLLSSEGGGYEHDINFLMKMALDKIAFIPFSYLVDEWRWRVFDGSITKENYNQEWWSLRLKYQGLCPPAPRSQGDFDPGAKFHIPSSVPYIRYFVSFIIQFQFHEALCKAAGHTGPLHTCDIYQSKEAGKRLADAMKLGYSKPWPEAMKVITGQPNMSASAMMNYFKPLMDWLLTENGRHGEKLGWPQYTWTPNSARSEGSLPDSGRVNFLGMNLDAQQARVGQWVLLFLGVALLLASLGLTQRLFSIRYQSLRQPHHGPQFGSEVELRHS
Residues, ends and D or L forms follow the SMILES beside them.
READOUT_NAME: pIC50
Scale for pIC50: -log10 of concentration given in mol/L; no unit attached.

Input line: Which pIC50 value belongs to CC[C@H](C)[C@H](NC(=O)CNC(=O)CN)C(=O)N[C@@H](Cc1ccccc1)C(=O)O [GGIF] (H-GGIF-OH; N-terminus and C-terminus assumed) ?
Output line: 4.04

----------
- TARGET_OR_SYSTEM: ACE (Oryctolagus cuniculus)
- Construct: the angiotensin-I-converting enzyme from rabbit lung (2 units/mg protein); purchased Sigma Chemical Co. (St. Louis, MO, USA); host or cells: rabbit lung (tissue-derived)
- ASSAY_DETAILS: Kinetics study of ACE inhibition (Lineweaver-Burk / Michaelis-Menten, HHL 15 to 4000 µM)
- Format: biochemical, rabbit
- DETAILS: from plot of 1/Vmax against inhibitor concentration; read-out: Kiu (enzyme-inhibitor dissociation constant)
No end group written: not given here.
READOUT_NAME: Ki

Input line: Returns the measured Ki for the input sequence. Input: YGIKVGYAIP [YGIKVGYAIP]
Output line: 54 µM
